- assayMethodText: Cell Viability - SK-N-SH (AID 435);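 also: potency is read from the fitted curve at half-maximal effect; compound exposure lasted 40 h at 37 °C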
- conditionLabel: SK-N-SH neuroblastoma cell viability qHTS
Results filed as inconclusive are left out. Active and inactive are the calls of the source. Calls follow the shape of the full dose curve.
Could you please pick one outcome from this set? active, inactive

Input: Give the logged outcome of this assay for the following compound: CCCCC(CC)COC(=O)c1ccccc1C(=O)O (configuration not stated)
Output: inactive

Input: Give the logged outcome of this assay for the following compound: O=C(c1ccccc1)c1ccccc1
Output: inactive

Input: Give the logged outcome of this assay for the following compound: Brc1ccccc1-c1ccccc1
Output: inactive

Input: Give the logged outcome of this assay for the following compound: Oc1ccccc1
Output: inactive

Input: Give the logged outcome of this assay for the following compound: C1=CC2C3C=CC(C3)C2C1 (configuration not stated)
Output: inactive

Input: Give the logged outcome of this assay for the following compound: COc1cc(C=O)ccc1O
Output: inactive

Input: Give the logged outcome of this assay for the following compound: CCCCCCCCCCCCCCCC[n+]1ccccc1
Output: active

---

- Test system: NIH3T3
- assayMethodText: Cytotoxic Profiling of Annotated Libraries Using Quantitative High-Throughput Screening (AID 1296008); also: % is scaled to controls: 0 for no effect and ±100 for the full control effect; nearly all actives have a fitted effect of over 60% in size
- conditionLabel: Five cell lines viability, CellTiter-Glo ATP luminescence, 48-72 h; active compounds read low
Inconclusive results are not listed.
recordedEndpoint: max response (%)
I only need the number, in %, no unit after it.

Item O=C1CC(c2ccc(Cl)cc2)CC(=O)N1 ; assay system NIH3T3; max response reported as -1.3

Item CC(=O)N(c1onc(C)c1C)S(=O)(=O)c1ccc(N)cc1 ; assay system NIH3T3; max response reported as -5.11

Item Cc1ccc2c(Cl)cc(Cl)c(O)c2n1 ; assay system NIH3T3; max response reported as 2.93

Item Cc1nc2n(c(=O)c1CCN1CCC(C(=O)c3ccc(F)cc3)CC1)CCS2 ; assay system NIH3T3; max response reported as -4.75

Item Cc1ccccc1C(=O)N1CC/C(=N\OS(=O)(=O)O)c2ccc(Cl)cc21 ; assay system NIH3T3; max response reported as -8.25

Item CCCC(=O)O[C@]1(C(=O)COC(=O)CC)CC[C@H]2[C@@H]3CCC4=CC(=O)CC[C@]4(C)[C@H]3[C@@H](O)C[C@@]21C ; assay system NIH3T3; max response reported as 1.36

Item CCCCCCOC(=O)NC(=N)c1ccc(NCc2nc3cc(C(=O)N(CCC(=O)OCC)c4ccccn4)ccc3n2C)cc1 ; assay system NIH3T3; max response reported as 1.24

Item NC(=O)NS(=O)(=O)c1ccc(Cl)cc1 ; assay system NIH3T3; max response reported as -2.72

Item C[C@H]1C[C@H](O)c2ccsc2S1(=O)=O ; assay system NIH3T3; max response reported as 1.66

Item Oc1ccccc1-c1nnco1 ; assay system NIH3T3; max response reported as 1.39

Item COc1ccc2cc(C=O)ccc2c1 ; assay system NIH3T3; max response reported as 2.35

Item COc1cc2c(cc1OC)CN(C(=O)[C@H](C)N[C@@H](CCc1ccccc1)C(=O)O)[C@H](C(=O)O)C2 ; assay system NIH3T3; max response reported as -7.08

Item O=C1NC(=O)/C(=C/c2ccc3c(c2)OC(F)(F)O3)S1 ; assay system NIH3T3; max response reported as -4.12

Item CC(Oc1c(Cl)cccc1Cl)C1=NCCN1 (centres undefined) ; assay system NIH3T3; max response reported as 3.55

---

- assayMethodText: qHTS of pediatric cancer cell lines to identify multiple opportunities for drug repurposing: Primary screen for Saos-2 cells (AID 1347097); also: nearly all actives have a fitted effect of over 40% in size
- conditionLabel: Saos-2 viability, CellTiter-Glo ATP luminescence, 48 h; series mostly up to 46 µM
Inconclusive results are not listed. Calls of active or inactive are those of the source. Calls follow the shape of the dose curve; as a rule, active = well fitted cell-killing curve with a large enough effect; inconclusive = small, poorly fitted or top-dose-only effect; inactive = no such curve, though single readings can be large or run the other way.
Could you please pick one outcome from this set? active, inactive

Input: Give the logged outcome of this assay for the following molecule: CCCOc1ccc2c(c1)CC[C@@H]1[C@@H]2CC[C@]2(C)C(OC)CC[C@@H]12 (stereo partly drawn)
Output: inactive

Input: Give the logged outcome of this assay for the following molecule: Cc1cc(OCCOCC[N+](C)(C)Cc2ccccc2)ccc1C(C)(C)CC(C)(C)C
Output: active

Input: Give the logged outcome of this assay for the following molecule: C[C@H]1C[C@H](O)c2ccsc2S1(=O)=O
Output: inactive

Input: Give the logged outcome of this assay for the following molecule: Cc1coc2ccccc2c1=O
Output: inactive

Input: Give the logged outcome of this assay for the following molecule: O=C(O)CCCC[P+](c1ccccc1)(c1ccccc1)c1ccccc1
Output: inactive

Input: Give the logged outcome of this assay for the following molecule: COC(=O)c1cc(S(N)(=O)=O)ccc1OC
Output: inactive

Input: Give the logged outcome of this assay for the following molecule: NC(=O)COCCN1CCN(C(c2ccccc2)c2ccc(Cl)cc2)CC1 (stereo not drawn)
Output: inactive

Input: Give the logged outcome of this assay for the following molecule: Cc1cccc(C)c1NC(=O)c1ccc(N)cc1
Output: inactive

Input: Give the logged outcome of this assay for the following molecule: CCS(=O)(=O)c1ccc(OC)c(C(=O)OC)c1
Output: inactive

Input: Give the logged outcome of this assay for the following molecule: CC(=O)O[C@@H]1C(=O)O[C@@H]2[C@H]1OC(=O)[C@@H]2OC(C)=O
Output: inactive

Input: Give the logged outcome of this assay for the following molecule: N#CSCC(=O)O
Output: inactive

Input: Give the logged outcome of this assay for the following molecule: CC(=O)Nc1ccn(C2COC(COC(=O)c3ccccc3)O2)c(=O)n1 (stereo not drawn)
Output: inactive

Input: Give the logged outcome of this assay for the following molecule: O=P(O)(O)OCC(O)CO (stereo not drawn)
Output: inactive

Input: Give the logged outcome of this assay for the following molecule: O=C1CCCc2c(O)cccc21
Output: inactive

Input: Give the logged outcome of this assay for the following molecule: CC(=O)OCC(=O)Nc1cc(C#N)cc(NC(=O)COC(C)=O)c1Cl
Output: inactive

Input: Give the logged outcome of this assay for the following molecule: COc1ccc2nc(SCc3ncc(C)c(OC)c3C)[nH]c2c1
Output: inactive

Input: Give the logged outcome of this assay for the following molecule: O=C1NC2CCCCN2C12CCN(CCCN1c3ccccc3CCc3ccc(Cl)cc31)CC2 (stereo not drawn)
Output: active

Input: Give the logged outcome of this assay for the following molecule: COc1ccc(CCC(C)=O)cc1
Output: inactive

---

- assayMethodText: qHTS of pediatric cancer cell lines to identify multiple opportunities for drug repurposing: Primary screen for OHS-50 cells (AID 1347103); also: nearly all actives have a fitted effect of over 40% in size; also: potency is read from the fitted curve at half-maximal effect
- conditionLabel: OHS-50 osteosarcoma viability, CellTiter-Glo luminescence, 48 h; series mostly up to 57.3 µM
Records with an inconclusive call do not appear. The source made the active and inactive calls. Calls follow the shape of the dose curve; as a rule, active = well fitted cell-killing curve with a large enough effect; inconclusive = small, poorly fitted or top-dose-only effect; inactive = no such curve, though single readings can be large or run the other way.
recordedEndpoint: Potency

compound | Potency
O=C(Nc1ccc(Cl)cc1)Nc1ccc(Cl)c(Cl)c1 | 24.6 µM (active)
CCCCNc1ccc(C(=O)OCCN(CC)CC)cc1 | inactive
O=C(O)[C@H](O)[C@@H](O)[C@H](O[C@@H]1O[C@H](CO)[C@H](O)[C@H](O)[C@H]1O)[C@H](O)CO | inactive
CCOC(=O)NNc1ccc(N(CC)CC(C)O)nn1 (stereo unspecified) | inactive
CC[C@@]1(O)C(=O)OCc2c1cc1n(c2=O)Cc2c-1nc1ccccc1c2/C=N/OC(C)(C)C | 0.0347 µM (active)

Now examine the next entry.
Potency measured on Cc1ccc2ccc(Cl)cc2n1 = inactive

---

- assayMethodText: qHTS of pediatric cancer cell lines to identify multiple opportunities for drug repurposing: Primary screen for DAOY cells (AID 1347090);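 also: plate controls were DMSO for no effect and bortezomib for full effect; nearly all actives have a fitted effect of over 55% in size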
- conditionLabel: DAOY medulloblastoma viability, CellTiter-Glo luminescence, 48 h; series mostly up to 46 µM
Results filed as inconclusive are left out. Activity calls are given as the source filed them. Calls follow the shape of the dose curve; as a rule, active = well fitted cell-killing curve with a large enough effect; inconclusive = small, poorly fitted or top-dose-only effect; inactive = flat fitted curve, though single readings scatter.
recordedEndpoint: outcome

Example compounds with recorded outcome:
compound | outcome
O=C(O)c1ccccc1S | inactive
C=CC[N+]1([C@H]2C[C@H]3[C@@H]4CC[C@H]5C[C@H](OC(C)=O)[C@@H](N6CCCCC6)C[C@]5(C)[C@H]4CC[C@]3(C)[C@H]2OC(=O)CC)CCCCC1 | inactive
c1ccc2occc2c1 | inactive
Oc1ccccc1-c1nnco1 | inactive
O=C(O)CNC(=O)CNC(=O)CNC(=O)CSC(=O)c1ccccc1 | inactive
CC(=O)OC[C@H]1O[C@@H](OC(C)=O)[C@H](OC(C)=O)[C@@H]1OC(C)=O | inactive

outcome measured on O=C(c1ccco1)N1CCNCC1 = inactive

outcome measured on CC(=O)Nc1ccn(C2COC(COC(=O)c3ccccc3)O2)c(=O)n1 (stereo not drawn) = inactive

outcome measured on O=C1CC2(CCCC2)CC(=O)N1 = inactive

outcome measured on CCc1cc(S(=O)(=O)O)c2cc(C(C)C)cccc1-2 = inactive

outcome measured on O=C(O)/C=C(\CC(=O)O)C(=O)O = inactive

outcome measured on OC1(c2ccccc2)CCNCC1 = inactive

outcome measured on CN(C)CCOC1=Cc2ccccc2Sc2ccc(Cl)cc21 = inactive

outcome measured on COc1cc2nc(Cl)nc(N)c2cc1OC = inactive

outcome measured on CC(=O)N1CCN(c2ccc(O)cc2)CC1 = inactive

outcome measured on CC(C)C(=O)OCc1cccc(OC(=O)[C@@H]2N3C(=O)[C@@H](NC(=O)Cc4ccccc4)[C@H]3SC2(C)C)c1 = inactive

outcome measured on CN1CCCN=C1/C=C/c1cccs1 = inactive

outcome measured on CC1(C)O[C@@H]2C[C@H]3[C@@H]4CCC5=CC(=O)C=C[C@]5(C)[C@@]4(F)[C@@H](O)C[C@]3(C)[C@]2(C(=O)CO)O1 = inactive
